Tested on: Vero cells
Assay: Cytotoxicity in mammalian cells (Cell Titer Glo)
Assay type: cell-based
Conditions: African green monkey, 24 h
Marks after values point to notes of the source that are not given here.
Item-by-item account of LD50 ex vivo VERO

CCc1ccccc1-c1nc(CN[C@@H]2C[C@@H]3C[C@H]([C@H]2C)C3(C)C)c(C)o1 : 54.7 ± 6.65 µM
Cc1oc(C2CCCCC2)nc1C(=O)N[C@@H]1C[C@@H]2C[C@H]([C@H]1C)C2(C)C : >50^a µM

Task: Item Cc1oc(-c2ccccc2)nc1CN[C@@H]1C[C@@H]2C[C@H]([C@H]1C)C2(C)C : provide LD50 ex vivo VERO
Output: 36.1 ± 3.0 µM

Task: Identify measured LD50 ex vivo VERO associated with Cc1oc(-c2ccc3c(c2)OCO3)nc1CN[C@@H]1C[C@@H]2C[C@H]([C@H]1C)C2(C)C
Output: >75.5^a µM

Task: Look up and report measured LD50 ex vivo VERO for this entry: Cc1oc(-c2ccc3ccccc3c2)nc1CNC1CCCCCC1
Output: >50^a µM

Task: For the compound C#CCN(Cc1nc(-c2ccccc2)oc1C)[C@@H]1C[C@@H]2C[C@H]([C@H]1C)C2(C)C , give its measured LD50 ex vivo VERO value.
Output: >100^a µM

* * *

Listed next: entries and their corresponding avg % inhib, 1 hr.
Biological target: TGR (Schistosoma mansoni, UniProt Q962Y6)
Construct: made in house
Sequence (Q962Y6 1-598): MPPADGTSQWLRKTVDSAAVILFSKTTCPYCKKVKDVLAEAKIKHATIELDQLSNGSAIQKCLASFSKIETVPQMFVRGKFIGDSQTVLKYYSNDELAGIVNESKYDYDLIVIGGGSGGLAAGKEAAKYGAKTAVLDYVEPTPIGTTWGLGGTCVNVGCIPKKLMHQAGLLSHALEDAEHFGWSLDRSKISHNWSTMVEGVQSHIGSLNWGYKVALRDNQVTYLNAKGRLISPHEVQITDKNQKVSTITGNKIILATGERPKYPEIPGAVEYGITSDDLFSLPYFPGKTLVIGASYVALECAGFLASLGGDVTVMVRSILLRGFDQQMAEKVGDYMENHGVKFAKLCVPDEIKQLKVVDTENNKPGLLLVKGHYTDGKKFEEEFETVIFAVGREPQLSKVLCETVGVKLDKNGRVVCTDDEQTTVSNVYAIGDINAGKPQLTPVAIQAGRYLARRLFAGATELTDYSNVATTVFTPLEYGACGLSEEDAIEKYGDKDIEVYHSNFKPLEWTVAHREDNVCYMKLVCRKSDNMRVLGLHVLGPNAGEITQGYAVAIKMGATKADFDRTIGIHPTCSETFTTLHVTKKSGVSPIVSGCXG
Test: Time dependence of inhibition
Type: biochemical
Design: tested at 50 µM
Conditions: panel d Time Dependence; 1 hr; average
The number alone won't do; follow it with the unit.

// solved cases for avg % inhib, 1 hr follow
Cc1oc(-c2ccc3ccccc3c2)nc1CNC1CCCCCC1 : 24.7276%
Cc1oc(-c2ccccc2)nc1CN[C@@H]1C[C@@H]2C[C@H]([C@H]1C)C2(C)C : 32.5613%
Cc1oc(C2CCCCC2)nc1CN[C@@H]1C[C@@H]2C[C@H]([C@H]1C)C2(C)C : 30.1534%

Okay, now this compound:
Task: Lab note: record avg % inhib, 1 hr of Cc1oc(-c2ccc3c(c2)OCO3)nc1CN[C@@H]1C[C@@H]2C[C@H]([C@H]1C)C2(C)C tested on TGR (Schistosoma mansoni, UniProt Q962Y6).
Output: 1.283%

* * *

Tested on: S. mansoni newly transformed schistosomula (NTS)
Assay: Schistosomicidal activity ex vivo, NTS (Cell Titer Glo)
Format: cell-based
Conditions: Schistosoma mansoni
Reported viability at 5 µM values are given for each entry in this list.
# number only, unit % dropped from output

Cc1oc(C2CCCCC2)nc1C(=O)N[C@@H]1C[C@@H]2C[C@H]([C@H]1C)C2(C)C : 40.2
C#CCN(Cc1nc(-c2ccccc2)oc1C)[C@@H]1C[C@@H]2C[C@H]([C@H]1C)C2(C)C : 81.1
Cc1oc(-c2ccc3c(c2)OCO3)nc1CN[C@@H]1C[C@@H]2C[C@H]([C@H]1C)C2(C)C : 52.7
C[C@@H]1[C@H]2C[C@@H](C[C@H]1NCc1nc3ccccc3n1C1CCCCCC1)C2(C)C : 84.8
CCc1ccccc1-c1nc(CN[C@@H]2C[C@@H]3C[C@H]([C@H]2C)C3(C)C)c(C)o1 : 0.373

Now examine the next entry.
Task: Respond only with viability at 5 µM recorded for C[C@@H]1N=C(c2ccccc2Cl)c2cc([N+](=O)[O-])ccc2NC1=O [MZM, meclonazepam, reference compound]
Output: 64.8
